Listed next: entries and their corresponding pEC50.
# experimental.system: Muscarinic acetylcholine receptor M5 (Homo sapiens, UniProt P08912)
# Sequence (P08912 whole entry): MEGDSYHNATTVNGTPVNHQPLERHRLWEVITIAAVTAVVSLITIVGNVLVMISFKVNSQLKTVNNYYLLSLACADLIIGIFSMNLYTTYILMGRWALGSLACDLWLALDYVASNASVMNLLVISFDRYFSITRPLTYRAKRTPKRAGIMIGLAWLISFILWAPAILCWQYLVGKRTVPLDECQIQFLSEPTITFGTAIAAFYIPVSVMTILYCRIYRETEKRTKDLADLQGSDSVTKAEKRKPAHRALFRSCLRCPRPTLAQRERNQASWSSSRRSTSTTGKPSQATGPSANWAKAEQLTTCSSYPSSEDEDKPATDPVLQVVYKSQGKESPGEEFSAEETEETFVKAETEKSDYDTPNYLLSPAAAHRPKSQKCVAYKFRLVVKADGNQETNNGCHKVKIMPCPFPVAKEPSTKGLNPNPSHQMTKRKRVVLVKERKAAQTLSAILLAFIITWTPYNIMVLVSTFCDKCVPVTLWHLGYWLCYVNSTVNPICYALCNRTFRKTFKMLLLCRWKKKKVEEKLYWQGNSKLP
# experiment.notes: PubChem AID 2186
pEC50: −log10 of the molar value.

Some compounds with recorded pEC50:
Query: Requested read-out pEC50, target or system Muscarinic acetylcholine receptor M5 (Homo sapiens, UniProt P08912), entry O=C1C(=O)N(Cc2ccc(-c3ccccc3)cc2)c2ccc(OC(F)(F)F)cc21
Response: < 6.35

Query: Requested read-out pEC50, target or system Muscarinic acetylcholine receptor M5 (Homo sapiens, UniProt P08912), entry COc1ccc(CN2C(=O)C(=O)c3cc(OC(F)(F)F)ccc32)cc1
Response: 9.29

Others:
Query: Requested read-out pEC50, target or system Muscarinic acetylcholine receptor M5 (Homo sapiens, UniProt P08912), entry O=C1C(=O)N(Cc2ccc(-c3ccsc3)cc2)c2ccc(OC(F)(F)F)cc21
Response: < 6.35
